Here the recorded Kd is given for each entry.
TARGET SYSTEM: T1, rhesus serum albumin (rhesus, UniProt Q28522 17-600)
T1 construct: also called RhSA
T1 sequence (Q28522 17-600 limits assumed): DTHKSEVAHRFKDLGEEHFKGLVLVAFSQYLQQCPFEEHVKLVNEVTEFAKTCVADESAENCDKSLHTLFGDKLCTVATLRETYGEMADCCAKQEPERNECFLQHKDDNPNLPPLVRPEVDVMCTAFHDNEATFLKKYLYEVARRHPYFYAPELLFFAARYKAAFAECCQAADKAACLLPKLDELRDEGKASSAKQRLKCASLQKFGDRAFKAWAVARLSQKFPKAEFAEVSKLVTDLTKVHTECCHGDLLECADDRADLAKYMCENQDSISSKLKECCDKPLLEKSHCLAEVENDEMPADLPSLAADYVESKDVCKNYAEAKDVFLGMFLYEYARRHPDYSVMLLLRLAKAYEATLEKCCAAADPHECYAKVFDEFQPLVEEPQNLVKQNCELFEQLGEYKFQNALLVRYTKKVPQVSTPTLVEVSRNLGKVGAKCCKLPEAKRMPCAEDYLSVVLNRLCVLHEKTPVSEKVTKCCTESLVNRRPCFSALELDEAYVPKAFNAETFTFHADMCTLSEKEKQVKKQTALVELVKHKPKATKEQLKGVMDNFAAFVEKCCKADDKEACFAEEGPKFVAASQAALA
TEST NAME: SPR (Biacore), albumin immobilized on CM5 chip
Just the number please, in nM, no unit attached.

>  <BINDER>
SABA3.1 (designed binder, His6-tagged Adnectin core 3) MGVSDVPRDLEVVAATPTSLLISWSNDGPGLSYYRITYGETGGNSPVQEFTVPSSQTTATISGLKPGVDYTITVYAVSYYTKKAYSAGPISINYRTEIDKPSQHHHHHH

>  <ENDPOINT LABEL>
Kd

>  <RECORDED NUMBER>
431

$$$$
>  <BINDER>
SABA2.1 (designed binder, His6-tagged Adnectin core 2) MGVSDVPRDLEVVAATPTSLLISWPKYDKTGHYYRITYGETGGNSPVQEFTVPTRQTTATISGLKPGVDYTITVYAVSKDDYYPHEHRPISINYRTEIDKPSQHHHHHH

>  <ENDPOINT LABEL>
Kd

>  <RECORDED NUMBER>
63.6

$$$$

Here is another binder to look at.
Just so you know, measured Kd for SABA1.1 (designed binder) MGVSDVPRDLEVVAATPTSLLISWHSYYEQNSYYRITYGETGGNSPVQEFTVPYSQTTATISGLKPGVDYTITVYAVYGSKYYYPISINYRTEIDKPSQHHHHHH came out at 778
